The values you see were collected from patent US11319299B2.

- system tested: WDR5 (Homo sapiens (Human), UniProt P61964)
- assay procedure: Surface Plasmon Resonance (SPR) assay, KD and residence time
- Format: binding
- condition context: surface plasmon resonance (SPR); read-out: WDR5 binding affinity (KD)
Attribute: Kd

Below: 5 compounds and their reported Kd.
{"compound": "C[C@@H]1CN(c2cc(F)c(-c3ccc(C(=O)NC4CCCCC4)c(F)c3)cc2NC(=O)c2c[nH]c(=O)cc2C(F)(F)F)C[C@H](C)N1C [Example 732]", "observed": "2.76 nM"}
{"compound": "Cc1cnc(N2CC=C(c3cc(NC(=O)c4c[nH]c(=O)cc4C(F)(F)F)c(N4C[C@@H](C)N(C)[C@@H](C)C4)cc3F)C2)nc1 [Example 439]", "observed": "2.45 nM"}
{"compound": "C[C@@H]1CN(c2cc(F)c(-c3ccsc3)cc2NC(=O)c2c[nH]c(=O)cc2C(F)(F)F)C[C@H](C)N1C [Example 493]", "observed": "2.86 nM"}
{"compound": "CC1CN(c2cc(F)c(-c3cnc(N4CCOCC4)nc3)cc2NC(=O)c2c[nH]c(=O)c(C(F)(F)F)c2)CCN1C (stereo in doubt) [Example 495]", "observed": "24.9 nM"}
{"compound": "C[C@@H]1CN(c2cc(F)c(-c3ncc(C(=O)N4CCN(C)CC4)s3)cc2NC(=O)c2c[nH]c(=O)cc2C(F)(F)F)C[C@H](C)N1C [Example 501]", "observed": "3.44 nM"}

Now consider the entry below.
## Task What value of Kd has been reported for the following compound? C[C@@H]1CN(c2cc(F)c(-c3ccc(CN4CCOCC4)s3)cc2NC(=O)c2c[nH]c(=O)cc2C(F)(F)F)C[C@H](C)N1C [Example 491]
## Result 3.59 nM
